Taken from PubChem BioAssay AID1963963.

- System: 958667-338-R-J2-PDC tumor spheroids viability;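 further: spheroids exposed to compounds for seven days before readout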
- Experiment: Anticancer human tumor 958667-338-R-J2-PDC patient-derived colon adenocarcinoma cell line growth inhibition [PI3K]
- Details: second compound 1 µM; first compound 10 µM; hits give low values; spheroids with HUVEC and MSC

Compound	viability, T/C
C=CC(=O)N1CCN(c2nc(=O)n(-c3c(C)ccnc3C(C)C)c3nc(-c4c(O)cccc4F)c(F)cc23)C(C)C1 (stereo unspecified) + Cc1nc(NC(=O)N2CCCC2C(N)=O)sc1-c1ccnc(C(C)(C)C(F)(F)F)c1	85.2%
C=CC(=O)N1CCN(c2nc(=O)n(-c3c(C)ccnc3C(C)C)c3nc(-c4c(O)cccc4F)c(F)cc23)C(C)C1 (stereo unspecified) + COc1c(OCCCN2CCOCC2)ccc2c3n(c(=NC(=O)c4cnc(N)nc4)nc12)CCN3	18.2%
CC(C)NCC(C(=O)N1CCN(c2ncnc3c2C(C)CC3O)CC1)c1ccc(Cl)cc1 (stereo unspecified) + Cc1nc(NC(=O)N2CCCC2C(N)=O)sc1-c1ccnc(C(C)(C)C(F)(F)F)c1	73.5%
C#Cc1c(F)ccc2cc(O)cc(-c3ncc4c(N5CC6CCC(C5)N6)nc(OCC56CCCN5CC(F)C6)nc4c3F)c12 (stereo unspecified) + Cc1nc(NC(=O)N2CCCC2C(N)=O)sc1-c1ccnc(C(C)(C)C(F)(F)F)c1	41.4%
C#Cc1c(F)ccc2cc(O)cc(-c3ncc4c(N5CC6CCC(C5)N6)nc(OCC56CCCN5CC(F)C6)nc4c3F)c12 (stereo unspecified) + COc1c(OCCCN2CCOCC2)ccc2c3n(c(=NC(=O)c4cnc(N)nc4)nc12)CCN3	1.67%
C#Cc1c(F)ccc2cc(O)cc(-c3ncc4c(N5CC6CCC(C5)N6)nc(OCC56CCCN5CC(F)C6)nc4c3F)c12 (stereo unspecified) + CC(Nc1ccc2c(c1)OCCn1cc(N3C(=O)OCC3C(F)F)nc1-2)C(N)=O	25.6%
CC1(C)CCC(Nc2ncc(C(F)(F)F)c(-c3c[nH]c4c(P(C)(C)=O)c(C#N)ccc34)n2)CN1 (stereo unspecified) + COc1c(OCCCN2CCOCC2)ccc2c3n(c(=NC(=O)c4cnc(N)nc4)nc12)CCN3	1.04%
Cn1nccc1Nc1nccc(-c2ccn(C(CO)c3ccc(Cl)c(F)c3)c(=O)c2)n1 (stereo unspecified) + Cc1nc(NC(=O)N2CCCC2C(N)=O)sc1-c1ccnc(C(C)(C)C(F)(F)F)c1	42.1%
CCCS(=O)(=O)Nc1ccc(F)c(C(=O)c2c[nH]c3ncc(-c4ccc(Cl)cc4)cc23)c1F + CC(Nc1ccc2c(c1)OCCn1cc(N3C(=O)OCC3C(F)F)nc1-2)C(N)=O	10.8%
CNC(=O)c1ccc(N2C(=S)N(c3ccc(C#N)c(C(F)(F)F)c3)C(=O)C2(C)C)cc1F + COc1c(OCCCN2CCOCC2)ccc2c3n(c(=NC(=O)c4cnc(N)nc4)nc12)CCN3	9.91%
CC(Cn1ccc(-c2ccc(C#N)c(Cl)c2)n1)NC(=O)c1cc(C(C)O)[nH]n1 (stereo unspecified) + CC(Nc1ncnc2nc[nH]c12)c1cc2cccc(Cl)c2c(=O)n1-c1ccccc1	73.7%
